System: HCMV UL50-UL53 nuclear egress complex (human cytomegalovirus)
Test: inhibitors of HCMV UL50-UL53 interaction, biochemical, HTRF (AID 1918969)
Settings: normalized percent inhibition, hits give high values, concentration not given here
Screen size: about 190,000 compounds; about 280 (0.15%) were called active. Shown is part of a subset that was picked to be rich in actives.
// values below are reported inhibition
Assay metric: inhibition (%)

                                   compound  value_observed
0  COC(=O)c1cc(OC(=O)c2cc(OC)cc(OC)c2)cc(C(=O)OC)c1             6.8
1  C#CCN1C(=O)C(c2c(-c3ccc(Cl)cc3)[nH]c3c2c(=O)n(C)c(=O)n3C)c2ccccc21 (stereo not given)           -14.2
2  COc1ccc(OCC(=O)N2N=C(c3ccc(Cl)cc3)CC2c2ccco2)cc1 (stereo not given)           -31.7
3  CCOc1ccc(NC(=O)CCCN2C(=O)/C(=C/c3ccc(Cl)cc3)SC2=S)cc1           -12.3
4  COC(=O)c1sccc1NC(=O)Cn1c(=O)nc(-c2ccccc2F)c2cc(Cl)ccc21           -19.3
5         CCN(CC)c1nc(-c2ccccc2O)nc2ccccc12            -4.1
6  COc1ccc(OC)c(NC(=O)Cn2cnc3c2c(=O)n(C)c(=O)n3C)c1            -4.9
7  Cc1noc(C)c1COc1ccc(C(=O)OCC(=O)Nc2sc3c(c2C(N)=O)CCC3)cc1            13.2
8  CCOc1ccc(/C=C2\SC(=O)N(CCNC(=O)c3c(CC)noc3C)C2=O)cc1OC            -3.2
9  CCOc1cc(C=C2C(=O)NC(=O)NC2=O)ccc1OCCOCCOc1ccc(C)cc1            45.8

====

System: HCMV UL50-UL53 nuclear egress complex (human cytomegalovirus)
Assay: inhibitors of HCMV UL50-UL53 interaction, biochemical, HTRF (AID 1918969)
Settings: normalized percent inhibition, hits give high values, concentration not given here
About 280 (0.15%) of roughly 190,000 compounds were called active. What follows is part of a selection rich in actives, with near analogues and random picks from the rest.
inhibition overview
Assay metric: inhibition (%)

>>> df
                                    compound  value_observed
 0     O=C(NC1CCCCC1)c1ccc(-n2ccc3ccccc32)s1            37.9
 1  CCc1ccccc1N1CC(c2nc3ccccc3n2CCCCOc2ccccc2)CC1=O (stereo unspecified)            74.6
 2  CC1CCN(C(=O)c2cn(C)cc3c(=O)n(-c4ccccc4)nc2-3)CC1           -66.2
 3  COc1ccc(OCCCn2c(C3CC(=O)N(c4ccc(F)cc4)C3)nc3ccccc32)cc1 (stereo unspecified)            -4.1
 4                  O=C(NC1CCCC1)c1ccc(Br)s1            -3.7
 5                   O=C(NC1CCCCCCC1)c1cccs1            -0.7
 6      CCOc1ccc(CN(C)C(=O)C2=NNC(=O)CC2)cc1           -31.5
 7  Cc1cc(=O)n2[nH]c(CN(C(=O)CC(C)C)c3ccc(Cl)cc3)nc2n1            -9.7
 8  CC1=C(C(=O)OC2CCCC2)C(c2coc3ccc(C)cc3c2=O)C2=C(CC(c3ccco3)CC2=O)N1 (stereo unspecified)            -3.1
 9  Cn1c(CCc2ccc(NC(=O)CN3C(=O)COc4ccccc43)cc2)nc2ccccc21            -5.5
10        CNC(=O)c1ccc(N2CCOc3ccc(Cl)cc32)s1            14.6
